Exercise: for every item that follows, state its recorded Photo Toxicity Dark Tox50.
System: 3T3 fibroblast cells
Assay: In vitro phototoxicity assay (neutral red; UV light-treated vs dark control plates)
Type: cell-based
Conditions: dark control plate

CN(C)CCCc1cccc(-c2ccc(O)c3c2C[C@H]2C[C@H]4[C@H](N(C)C)C(O)=C(C(N)=O)C(=O)[C@@]4(O)C(O)=C2C3=O)c1 yielded Photo Toxicity Dark Tox50 of >200 µM

Memo: CC(=O)Nc1cccc(-c2ccc(O)c3c2C[C@H]2C[C@H]4[C@H](N(C)C)C(O)=C(C(N)=O)C(=O)[C@@]4(O)C(O)=C2C3=O)c1 , reported Photo Toxicity Dark Tox50: >162.66 µM

The recorded Photo Toxicity Dark Tox50 for entry CCN(CC)CCNC(=O)c1cccc(-c2ccc(O)c3c2C[C@H]2C[C@H]4[C@H](N(C)C)C(O)=C(C(N)=O)C(=O)[C@@]4(O)C(O)=C2C3=O)c1 equals >138.88 µM

Form: compound = CN(C)CCNCc1ccc(-c2ccc(O)c3c2C[C@H]2C[C@H]4[C@H](N(C)C)C(O)=C(C(N)=O)C(=O)[C@@]4(O)C(O)=C2C3=O)o1 ; Photo Toxicity Dark Tox50 = >142.02 µM

Measured Photo Toxicity Dark Tox50 of CN(C)CCCNC(=O)c1ccc(-c2ccc(O)c3c2C[C@H]2C[C@H]4[C@H](N(C)C)C(O)=C(C(N)=O)C(=O)[C@@]4(O)C(O)=C2C3=O)o1 : >200 µM

Record CN(C)[C@@H]1C(O)=C(C(N)=O)C(=O)[C@@]2(O)C(O)=C3C(=O)c4c(O)ccc(-c5ccc(NC(=O)CNC(C)(C)C)cc5)c4C[C@H]3C[C@@H]12 , field Photo Toxicity Dark Tox50: >137.36 µM

Reported Photo Toxicity Dark Tox50 ( COCCCOCCN(C)Cc1cccc(-c2ccc(O)c3c2C[C@H]2C[C@H]4[C@H](N(C)C)C(O)=C(C(N)=O)C(=O)[C@@]4(O)C(O)=C2C3=O)c1 ) = >200 µM

Sure, the documented Photo Toxicity Dark Tox50 for CN(C)[C@@H]1C(O)=C(C(N)=O)C(=O)[C@@]2(O)C(O)=C3C(=O)c4c(O)ccc(-c5cccc(C(=O)NCCN6CCOCC6)c5)c4CC3CC12 (some centres unmarked) is >136.18 µM

Sample CN(C)[C@@H]1C(O)=C(C(N)=O)C(=O)[C@@]2(O)C(O)=C3C(=O)c4c(O)ccc(-c5cccc(C(=O)NCCN6CCCCC6)c5)c4C[C@H]3C[C@@H]12 ; Photo Toxicity Dark Tox50 observed: >132.37 µM

The reported value for CN(C)[C@@H]1C(O)=C(C(N)=O)C(=O)[C@@]2(O)C(O)=C3C(=O)c4c(O)ccc(C(=O)CNCC(N)=O)c4C[C@H]3C[C@@H]12 in terms of Photo Toxicity Dark Tox50 is >118.96 µM

Record CN(C)CCCNC(=O)c1cccc(-c2ccc(O)c3c2C[C@H]2C[C@H]4[C@H](N(C)C)C(O)=C(C(N)=O)C(=O)[C@@]4(O)C(O)=C2C3=O)c1 [J] , field Photo Toxicity Dark Tox50: >130.13 µM

Just so you know, measured Photo Toxicity Dark Tox50 for C=CCNCC(=O)c1ccc(O)c2c1C[C@H]1C[C@H]3[C@H](N(C)C)C(O)=C(C(N)=O)C(=O)[C@@]3(O)C(O)=C1C2=O came out at >121.69 µM

// sample CC1CCN(CC(=O)c2ccc(O)c3c2C[C@H]2C[C@H]4[C@H](N(C)C)C(O)=C(C(N)=O)C(=O)[C@@]4(O)C(O)=C2C3=O)CC1 , its Photo Toxicity Dark Tox50 was >135.66 µM

Memo: COCCCNC(=O)c1cccc(-c2ccc(O)c3c2CC2CC4[C@H](N(C)C)C(O)=C(C(N)=O)C(=O)[C@@]4(O)C(O)=C2C3=O)c1 (some centres unmarked) , reported Photo Toxicity Dark Tox50: >152.62 µM

Short answer for CN(C)[C@@H]1C(O)=C(C(N)=O)C(=O)[C@@]2(O)C(O)=C3C(=O)c4c(O)ccc(-c5coc(CN6CCCCC6)c5)c4C[C@H]3C[C@@H]12 : Photo Toxicity Dark Tox50 was >138.34 µM

The compound CN(C)[C@@H]1C(O)=C(C(N)=O)C(=O)[C@@]2(O)C(O)=C3C(=O)c4c(O)ccc(-c5cccc(CCCO)c5)c4C[C@H]3C[C@@H]12 showed Photo Toxicity Dark Tox50 equal to >167.5 µM

The measured Photo Toxicity Dark Tox50 associated with CN(C)CC(=O)Nc1cccc(-c2ccc(O)c3c2C[C@H]2C[C@H]4[C@H](N(C)C)C(O)=C(C(N)=O)C(=O)[C@@]4(O)C(O)=C2C3=O)c1 reads >128.09 µM

Photo Toxicity Dark Tox50 reading for COCCNC(=O)c1ccc(-c2ccc(O)c3c2C[C@H]2C[C@H]4[C@H](N(C)C)C(O)=C(C(N)=O)C(=O)[C@@]4(O)C(O)=C2C3=O)o1 : >200 µM

Value of Photo Toxicity Dark Tox50 reported for the compound CN(C)CCNC(=O)c1ccc(O)c2c1C[C@H]1C[C@H]3[C@H](N(C)C)C(O)=C(C(N)=O)C(=O)[C@@]3(O)C(O)=C1C2=O is >125.56 µM

Per the record, COC(=O)C1CCN(Cc2ccc(O)c3c2C[C@H]2C[C@H]4[C@H](N(C)C)C(O)=C(C(N)=O)C(=O)[C@@]4(O)C(O)=C2C3=O)CC1 has Photo Toxicity Dark Tox50 of >140.07 µM

GET /value?item= CN(C)CCCN(C)Cc1cccc(-c2ccc(O)c3c2C[C@H]2C[C@H]4[C@H](N(C)C)C(O)=C(C(N)=O)C(=O)[C@@]4(O)C(O)=C2C3=O)c1 &field=Photo Toxicity Dark Tox50 returns >123.6 µM

Photo Toxicity Dark Tox50 in this record for CN(C)[C@@H]1C(O)=C(C(N)=O)C(=O)[C@@]2(O)C(O)=C3C(=O)c4c(O)ccc(C(=O)CNCC(C)(C)C)c4C[C@H]3C[C@@H]12 : >138.32 µM

====

Tested on: gram positive bacteria
Experiment: In vitro anti-bacterial activity assay (broth dilution MIC), gram positive bacteria
Type: cell-based, S. aureus
Conditions: Staphylococcus aureus, 18 h, S. aureus MRSA5; read-out: Median MIC's G+ S. aureus MRSA5
For each record, write down the corresponding MIC.
Your answer should be a plain number; it is taken to be in µg/mL.

Measured MIC, CN(C)[C@@H]1C(O)=C(C(N)=O)C(=O)[C@@]2(O)C(O)=C3C(=O)c4c(O)ccc(-c5cccc(C(=O)NCCN6CCCC6)c5)c4C[C@H]3C[C@@H]12 : 16

// MIC value for CN(C)CCCNC(=O)c1ccc(-c2ccc(O)c3c2C[C@H]2C[C@H]4[C@H](N(C)C)C(O)=C(C(N)=O)C(=O)[C@@]4(O)C(O)=C2C3=O)o1 : 64

Data point: CCN(CC)CCNC(=O)c1cccc(-c2ccc(O)c3c2C[C@H]2C[C@H]4[C@@H](N(C)C)C(O)=C(C(N)=O)C(=O)[C@@]4(O)C(O)=C2C3=O)c1 ; MIC = 64

Data point: COCCNC(=O)c1ccc(-c2ccc(O)c3c2C[C@H]2C[C@H]4[C@H](N(C)C)C(O)=C(C(N)=O)C(=O)[C@@]4(O)C(O)=C2C3=O)o1 ; MIC = 16

Per the records, this compound ( CN(C)[C@H]1C(O)=C(C(N)=O)C(=O)[C@@]2(O)C(O)=C3C(=O)c4c(O)ccc(-c5cccc(CCCN6CCCCC6)c5)c4C[C@H]3C[C@@H]12 ) has MIC equal to 32

Memo: CN(C)c1cc(-c2cccc(C(N)=O)c2)c(O)c2c1C[C@H]1C[C@H]3[C@H](N(C)C)C(O)=C(C(N)=O)C(=O)[C@@]3(O)C(O)=C1C2=O , reported MIC: 32

Sample CN(CCOC(C)(C)C)Cc1cccc(-c2ccc(O)c3c2C[C@H]2C[C@H]4[C@H](N(C)C)C(O)=C(C(N)=O)C(=O)[C@@]4(O)C(O)=C2C3=O)c1 ; MIC observed: 2

So for CN(C)CCc1ccc(O)c2c1C[C@H]1C[C@H]3[C@H](N(C)C)C(O)=C(C(N)=O)C(=O)[C@@]3(O)C(O)=C1C2=O , the logged MIC turned out to be 32

Measured MIC of CN(C)[C@@H]1C(O)=C(C(N)=O)C(=O)[C@@]2(O)C(O)=C3C(=O)c4c(O)ccc(C(=O)CNCC(N)=O)c4C[C@H]3C[C@@H]12 : 64

Reported MIC of CN(C)[C@@H]1C(O)=C(C(N)=O)C(=O)[C@@]2(O)C(O)=C3C(=O)c4c(O)ccc(-c5ccc(CN6CCOCC6)o5)c4C[C@H]3C[C@@H]12 : 4

// MIC lookup, compound = CN1CCN(C(=O)c2cccc(-c3ccc(O)c4c3C[C@H]3C[C@H]5[C@H](N(C)C)C(O)=C(C(N)=O)C(=O)[C@@]5(O)C(O)=C3C4=O)c2)CC1 , result: 64
